Hey, just so you know, these numbers are from ChEMBL document CHEMBL3745645.

# System: NCI-H460
# test_protocol: Cytotoxicity against human NCI-H460 cells at 10 uM after 48 hrs by SRB assay
# Assay type: functional
# assay_setup: NCI-H460, 48 h, read-out: GI
Below: a set of entries, each annotated with reported inhibition of growth at 10 µM.

{"columns": ["smiles_representation", "reading"],
 "data": [
  ["Cc1nc2cc(Nc3nc(NCCO)nc(Nc4ccc(F)cc4)n3)ccc2n1Cc1ccccc1", "16.5%"]
]}

In one line, give reported inhibition of growth at 10 µM of the entry Cc1nc2ccc(Nc3nc(Cl)nc(Nc4ccc(F)cc4)n3)cc2n1Cc1ccccc1 .
20.1%

State its inhibition of growth at 10 µM for this compound: Cc1nc2ccc(Nc3nc(Nc4ccc(F)cc4)nc(N4CCCCC4)n3)cc2n1Cc1ccccc1
17.7%

Return inhibition of growth at 10 µM for the following compound: Cc1nc2cc(Nc3nc(Nc4ccc(F)cc4)nc(-c4ccc(Cl)cc4)n3)ccc2n1Cc1ccccc1
28.9%
